Biological target: EGFR wild type (EGFR WT) (Homo sapiens (Human))
Sequence (P00533 25-1210): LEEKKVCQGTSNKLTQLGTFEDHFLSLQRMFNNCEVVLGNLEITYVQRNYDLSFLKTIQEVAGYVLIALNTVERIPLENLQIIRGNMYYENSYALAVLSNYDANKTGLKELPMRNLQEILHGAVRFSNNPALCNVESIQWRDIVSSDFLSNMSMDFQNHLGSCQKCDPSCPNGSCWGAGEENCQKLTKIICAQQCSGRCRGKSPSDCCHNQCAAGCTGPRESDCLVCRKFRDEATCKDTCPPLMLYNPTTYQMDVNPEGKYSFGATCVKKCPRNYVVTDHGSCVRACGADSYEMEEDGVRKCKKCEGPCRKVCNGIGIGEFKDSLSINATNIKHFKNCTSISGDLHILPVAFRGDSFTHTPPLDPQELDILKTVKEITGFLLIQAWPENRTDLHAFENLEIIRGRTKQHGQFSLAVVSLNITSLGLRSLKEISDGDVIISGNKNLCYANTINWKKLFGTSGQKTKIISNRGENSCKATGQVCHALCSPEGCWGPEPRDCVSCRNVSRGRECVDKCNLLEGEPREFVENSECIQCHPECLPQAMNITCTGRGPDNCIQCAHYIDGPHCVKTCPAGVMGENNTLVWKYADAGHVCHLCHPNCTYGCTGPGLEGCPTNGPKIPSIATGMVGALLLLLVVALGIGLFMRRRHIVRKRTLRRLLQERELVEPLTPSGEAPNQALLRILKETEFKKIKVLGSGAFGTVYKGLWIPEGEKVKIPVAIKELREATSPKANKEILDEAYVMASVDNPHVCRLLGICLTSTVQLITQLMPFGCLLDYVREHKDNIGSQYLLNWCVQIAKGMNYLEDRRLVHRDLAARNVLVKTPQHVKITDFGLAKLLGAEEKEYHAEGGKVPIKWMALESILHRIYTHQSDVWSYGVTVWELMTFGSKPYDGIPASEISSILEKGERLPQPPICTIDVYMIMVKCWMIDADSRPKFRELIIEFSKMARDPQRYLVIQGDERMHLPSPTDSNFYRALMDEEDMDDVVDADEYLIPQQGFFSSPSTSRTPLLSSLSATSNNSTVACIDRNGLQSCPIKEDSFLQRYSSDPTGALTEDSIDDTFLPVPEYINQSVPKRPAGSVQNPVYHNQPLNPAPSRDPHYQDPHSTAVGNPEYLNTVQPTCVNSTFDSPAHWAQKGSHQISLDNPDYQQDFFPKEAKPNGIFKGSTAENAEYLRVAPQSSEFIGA
Experiment: Cellular Phosphorylation Assay, Assay 5 (EGF-stimulated EGFR phosphorylation, NIH 3T3 cells)
Assay type: cell-based
Conditions: EGF-stimulated EGFR WT phosphorylation
pIC50: −log10 of the molar value.
Listed next: entries and their corresponding pIC50.

C=CC(=O)N1C[C@H]2C[C@@H]1CN(c1ccc3ncnc(Nc4cc(Cl)c(Oc5ccc6c(c5)ncn6C)cc4F)c3n1)C2 [Example 107]	≤ 5.30

C=CC(=O)N1[C@@H]2CC[C@H]1CC(c1ccc3ncnc(Nc4cc(C)c(Oc5ccn6ncnc6c5)cc4F)c3n1)C2 (stereo partly shown) [Example 194] has a reported pIC50 of 5.56

C=CC(=O)N1CCC(N(C)c2ccc3ncnc(Nc4ccc(Oc5ccn6ncnc6c5)c(C)c4F)c3n2)CC1 [Example 32] has a reported pIC50 of ≤ 5.30

C=CC(=O)N1CCN(c2nc3c(Oc4ccc(Oc5ccc6c(c5)ncn6C)c(C)c4)ncnc3cc2OC)CC1 [Example 41] has a reported pIC50 of ≤ 5.30

----------
Target: ErbB2 WT (Homo sapiens (Human), UniProt P04626)
Sequence (P04626 23-1255): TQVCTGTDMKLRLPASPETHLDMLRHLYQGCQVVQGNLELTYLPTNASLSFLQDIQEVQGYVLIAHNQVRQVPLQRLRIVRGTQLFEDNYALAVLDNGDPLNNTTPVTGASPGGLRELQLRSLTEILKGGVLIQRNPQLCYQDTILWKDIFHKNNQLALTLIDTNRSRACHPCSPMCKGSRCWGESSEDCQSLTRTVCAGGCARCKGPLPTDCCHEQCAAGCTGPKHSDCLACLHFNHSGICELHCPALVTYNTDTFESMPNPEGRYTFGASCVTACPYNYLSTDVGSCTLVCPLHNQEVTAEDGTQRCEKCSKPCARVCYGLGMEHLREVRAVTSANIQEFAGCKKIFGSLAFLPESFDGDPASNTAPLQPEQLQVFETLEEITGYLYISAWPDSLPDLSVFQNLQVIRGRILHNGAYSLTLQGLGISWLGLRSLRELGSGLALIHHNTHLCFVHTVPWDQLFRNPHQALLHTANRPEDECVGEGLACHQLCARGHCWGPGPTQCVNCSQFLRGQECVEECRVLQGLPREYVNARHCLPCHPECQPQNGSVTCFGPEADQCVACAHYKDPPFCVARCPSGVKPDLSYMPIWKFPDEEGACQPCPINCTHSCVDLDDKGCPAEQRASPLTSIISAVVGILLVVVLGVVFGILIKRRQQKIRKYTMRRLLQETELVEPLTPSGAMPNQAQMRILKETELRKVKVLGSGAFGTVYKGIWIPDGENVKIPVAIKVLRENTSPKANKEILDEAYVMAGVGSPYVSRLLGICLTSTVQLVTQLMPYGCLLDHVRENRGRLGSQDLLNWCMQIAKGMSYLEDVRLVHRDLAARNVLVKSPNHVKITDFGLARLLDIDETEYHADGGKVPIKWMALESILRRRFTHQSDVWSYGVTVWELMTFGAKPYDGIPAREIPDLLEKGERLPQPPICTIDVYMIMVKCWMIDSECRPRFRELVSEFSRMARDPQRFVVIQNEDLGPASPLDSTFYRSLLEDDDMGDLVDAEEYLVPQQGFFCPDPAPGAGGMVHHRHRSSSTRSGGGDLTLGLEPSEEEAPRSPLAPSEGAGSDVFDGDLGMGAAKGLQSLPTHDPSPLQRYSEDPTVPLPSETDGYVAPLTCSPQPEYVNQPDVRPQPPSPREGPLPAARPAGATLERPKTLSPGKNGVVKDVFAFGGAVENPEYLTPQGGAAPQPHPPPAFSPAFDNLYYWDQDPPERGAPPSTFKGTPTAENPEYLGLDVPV
Test: ErbB Enzyme Assay (HTRF KinEASE-TK), Assay 2
Assay type: biochemical
Details: ErbB2 WT enzyme assay
Listed next: entries and their corresponding pIC50.
To interpret pIC50, take it as minus log10 of a concentration measured in moles per litre.

Solved cases below.
C=CC(=O)N1[C@@H]2CC[C@H]1CC(c1ccc3ncnc(Nc4ccc(Oc5ccn6ncnc6c5)c(C)c4F)c3n1)C2 (stereo partly shown)	7.17
C=CC(=O)N1[C@@H]2CC[C@H]1[C@H](c1ccc3ncnc(Nc4cc(C)c(Oc5ccn6ncnc6c5)cc4F)c3n1)C2	8.01
C=CC(=O)N1C[C@@H]2CN(c3ccc4ncnc(Nc5ccc(Oc6ccc7c(c6)ncn7C)c(C)c5F)c4n3)C[C@@H]21	7.44

C=CC(=O)N1CCN(c2ccc3ncnc(Nc4cc(C)c(Oc5ccn6ncnc6c5)cc4F)c3n2)C[C@@H]1C(F)F (racemic) has a reported pIC50 of 7.62

C=CC(=O)N1C[C@H]2CC[C@@H]1C[C@H]2c1ccc2ncnc(Nc3ccc(Oc4cnc5c(c4)ncn5C)c(C)c3F)c2n1 has a reported pIC50 of 6.90

C=CC(=O)N1C2CC1CN(c1ccc3ncnc(Nc4cc(C)c(Oc5cnc6c(c5)ncn6C)cc4F)c3n1)C2 has a reported pIC50 of 5.59

C=CC(=O)N1CCN(c2ccc3ncnc(Nc4cc(F)c(Oc5ccn6ncnc6c5)cc4F)c3n2)CC1(C)C has a reported pIC50 of 6.83

C=CC(=O)N1[C@@H]2CC[C@H]1[C@H](c1ccc3ncnc(Nc4cc(C)c(Oc5cnc6c(c5)ncn6C)cc4F)c3n1)C2 has a reported pIC50 of 6.67

C=CC(=O)N1CC[C@H](c2ccc3ncnc(Nc4ccc(Oc5ccn6ncnc6c5)c(C)c4F)c3n2)CC1(C)C (racemic) has a reported pIC50 of 7.23

----------
Target: ErbB2 WT (Homo sapiens (Human))
Assay: ErbB Enzyme Assay (HTRF KinEASE-TK), Assay 2
Format: biochemical
Details: ErbB2 WT enzyme assay
Threshold check on IC50: strictly below 50 nM is Satisfied; on or above 50 nM is Not satisfied.

INPUT: Would you kindly verify if IC50 of C=CC(=O)N1CCN(c2ccc3ncnc(Nc4ccc(Oc5ccc6c(c5)ncn6C)c(C)c4F)c3n2)CC12CC2 is strictly less than 50 nM?
OUTPUT: Satisfied

INPUT: Would you kindly verify if IC50 of C=CC(=O)N1CCN(c2ccc3ncnc(Nc4ccc(Oc5ccn6ncnc6c5)c(C)c4F)c3n2)C[C@@H]1C(C)(C)C is strictly less than 50 nM?
OUTPUT: Not satisfied

INPUT: Would you kindly verify if IC50 of C=CC(=O)N1CC2CC(C1)N2c1ccc2ncnc(Nc3ccc(Oc4cnc5c(c4)ncn5C)c(C)c3F)c2n1 is strictly less than 50 nM?
OUTPUT: Not satisfied

INPUT: Would you kindly verify if IC50 of C=CC(=O)N1CCN(c2ccc3ncnc(Nc4ccc(Oc5ccc6c(c5)ncn6C)c(C)c4F)c3n2)C[C@H]1C(C)C is strictly less than 50 nM?
OUTPUT: Not satisfied

INPUT: Would you kindly verify if IC50 of C=CC(=O)N1CC[C@H](c2ccc3ncnc(Nc4ccc(Oc5cc(F)c6c(c5)ncn6C)c(C)c4)c3n2)CC1(C)C (racemic) is strictly less than 50 nM?
OUTPUT: Not satisfied
